# protocol.notes: yeast display, Sf9 membrane polyspecificity reagent, FACS + sequencing; frameworks hold sequencing errors
endpoint.name: polyreactivity (PSR sort gate)

sequence.string | data.value
QVQLVESGGGLVQAGGSLRLSCAASGSTFVPNAMGWYRQAPGKERELVAAISSVGSTNYADSVKGRFTISRDNAKNTVYLQMNSLKPEDTAVYYCAVRYPWRYFKYGYWGQGSQVTVSS | low polyreactivity
QVQLVESGGGLVQAGGSLRLSCAASGSIFYHYAMGWYRQAPGKERELVAAISSGGSTSYADSVKGRFTFSRDNAKNTVYLQMNSLKPEDTAVYYCNARRIRSRSWKYDYWGQGTQVTVSS | low polyreactivity
QVQLVESGGGLVQAGGSLRLSCAASGFIFPYNEMGWYRPAPGKERELGAAITSGSNTYYADSVKGRFTISRDNAKNTVYLQLNSLKPEDTAFYYCAARRRIYRSMGYWGQGSQVTVSS | low polyreactivity

Origin of values: the nanobody polyreactivity screen of Harvey et al. (2022)
